# target: Dual specificity tyrosine-phosphorylation-regulated kinase 1A (Homo sapiens) (UniProt Q13627)
# settings: at 1 µM
# Description: GSK_PKIS: DYRK1A mean inhibition at 1 uM [Nanosyn]
readout.name: inhibition (%)
Answers are plain numbers, in %.

Known results for compounds:
>>> observed_measurement("CCc1cccc(NC(=O)Nc2ccc(Oc3ccc4nc(NC(=O)OC)[nH]c4c3)cc2)c1")
1.26
>>> observed_measurement("N#Cc1c(NC(=O)c2cccc3ccccc23)sc2c1CCCC2")
4.31
>>> observed_measurement("COc1cc2ncn(-c3cc(OCc4ccccc4C(F)(F)F)c(C(N)=O)s3)c2cc1OC")
2.2

We next turn to a different compound, shown below.
Give inhibition for `Cc1nn(C)c2cc(N(C)c3ccnc(Nc4cccc(S(N)(=O)=O)c4)n3)ccc12` 0.86
